testedOn: IGFR kinase (Homo sapiens, UniProt P08069)
Construct: purchased Millipore
Sequence (P08069 31-1367): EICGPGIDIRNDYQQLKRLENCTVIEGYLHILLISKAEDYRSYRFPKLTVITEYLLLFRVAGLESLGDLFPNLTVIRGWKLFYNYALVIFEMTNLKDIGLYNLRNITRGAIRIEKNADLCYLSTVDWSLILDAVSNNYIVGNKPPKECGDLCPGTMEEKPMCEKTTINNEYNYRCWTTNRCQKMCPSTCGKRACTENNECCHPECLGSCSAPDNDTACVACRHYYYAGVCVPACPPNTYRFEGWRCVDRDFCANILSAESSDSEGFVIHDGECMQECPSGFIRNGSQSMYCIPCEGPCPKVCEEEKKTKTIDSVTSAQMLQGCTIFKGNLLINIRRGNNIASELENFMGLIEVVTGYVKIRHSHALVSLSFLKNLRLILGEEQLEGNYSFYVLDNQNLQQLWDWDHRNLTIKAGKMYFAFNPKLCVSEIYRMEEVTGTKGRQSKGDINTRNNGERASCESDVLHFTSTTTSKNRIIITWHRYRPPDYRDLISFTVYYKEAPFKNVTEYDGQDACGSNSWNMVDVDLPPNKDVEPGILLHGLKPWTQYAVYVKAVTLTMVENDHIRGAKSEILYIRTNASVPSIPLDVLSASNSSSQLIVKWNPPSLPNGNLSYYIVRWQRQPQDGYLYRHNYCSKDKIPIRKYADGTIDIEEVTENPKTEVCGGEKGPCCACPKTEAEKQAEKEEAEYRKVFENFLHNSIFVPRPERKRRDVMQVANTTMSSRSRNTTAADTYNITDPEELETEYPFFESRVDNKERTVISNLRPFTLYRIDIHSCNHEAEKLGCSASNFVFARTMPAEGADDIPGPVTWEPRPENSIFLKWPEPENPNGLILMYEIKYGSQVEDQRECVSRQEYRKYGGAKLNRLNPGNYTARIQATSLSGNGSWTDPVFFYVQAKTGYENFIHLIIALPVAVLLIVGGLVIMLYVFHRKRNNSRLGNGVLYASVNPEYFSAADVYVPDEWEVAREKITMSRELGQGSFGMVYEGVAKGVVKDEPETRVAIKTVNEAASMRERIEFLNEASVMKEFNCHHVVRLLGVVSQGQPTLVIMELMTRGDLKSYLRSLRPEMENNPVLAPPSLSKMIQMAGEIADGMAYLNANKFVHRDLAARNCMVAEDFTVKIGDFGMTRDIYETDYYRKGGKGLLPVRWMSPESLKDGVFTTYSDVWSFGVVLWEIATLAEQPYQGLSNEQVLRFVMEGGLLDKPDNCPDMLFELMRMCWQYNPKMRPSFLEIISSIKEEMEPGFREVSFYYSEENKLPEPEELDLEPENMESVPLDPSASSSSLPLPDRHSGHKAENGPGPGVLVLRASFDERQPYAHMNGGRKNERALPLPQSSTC
protocol: Enzyme assay (c), IGFR kinase, Caliper LabChip
Format: biochemical
measurementConditions: 30 nM IGFR kinase, 6 uM ATP, 3 uM peptide mix; read-out: IGFR IC50
Experimental: For Echo dosing the solvent was 100% DMSO. A master plate was prepared with 40 ul of 10 mM stock solution of the test compound in DMSO in quadrant 1 of a Labcyte 384 well plate. A 1 in 100 dilution was made from quadrant 1 into quadrant 2 by removing 0.4 ul and adding it to 39.6 ul of DMSO. […] Integration of the substrate and product peaks was carried out using Caliper LabChip software and IC50 curves were calculated using Origin™ software.
pIC50: −log10 of the molar value.
pIC50 by entry:
propertyName: pIC50

• COc1cc(CN2CCN(C)CC2)ccc1Nc1ncc(Cl)c(-c2cnc3ccccn23)n1 [Example 21.4] = 7.52
• COCCN1CCN(c2ccc(Nc3ncc(Cl)c(-c4cnc5ccccn45)n3)c(OC)c2)CC1 [Example 3.46] = 8.22
• COc1cc(C(C)C(=O)N2CCNCC2)ccc1Nc1ncc(Cl)c(-c2cnc3ccccn23)n1 (stereo not drawn) [Example 3.42] = 7.60
• CNCC(=O)N1CCC(c2ccc(Nc3ncc(Cl)c(-c4cnc5c(F)cccn45)n3)c(OC)c2)CC1 [Example 182] = 9.00
• COc1cc(C2CNC(=O)C2)ccc1Nc1ncc(Cl)c(-c2cnc3ccccn23)n1 (stereo not drawn) [Example 3.24] = 8.10
• COc1cc(N2CCN(CCO)[C@H](C)C2)ccc1Nc1ncc(F)c(-c2cnc3ccccn23)n1 [Example 272] = 6.57
• COc1cc(N2CCN(C(C)=O)CC2)cc(F)c1Nc1ncc(Cl)c(-c2cnc3ccccn23)n1 [Example 3.26] = 7.72
• COc1cc(N2CCN(CCO)CC2)ccc1Nc1ncc(C)c(-c2cnc3ccccn23)n1 [Example 101] = 6.63
• COc1cc(N2CCN(C(C)(C)CO)CC2)ccc1Nc1ncc(F)c(-c2cnc3ccc(F)cn23)n1 [Example 261] = 7.64
• COc1cc(OC2CCN(C(C)=O)CC2)ccc1Nc1ncc(C)c(-c2cnc3ccccn23)n1 [Example 103] = 7.11
• COc1cc(OC2CN(C[C@@H](C)O)C2)ccc1Nc1ncc(Cl)c(-c2cnc3ccccn23)n1 [Example 62] = 7.72
• COc1cc(N2CCN(C(=O)[C@H](C)OC)CC2)ccc1Nc1ncc(Cl)c(-c2cnc3ccccn23)n1 [Example 25.3] = 7.85

* * *

testedOn: IGFR kinase (Homo sapiens)
Construct: purchased Millipore
protocol: Enzyme assay (c), IGFR kinase, Caliper LabChip
Type: biochemical
measurementConditions: 30 nM IGFR kinase, 6 uM ATP, 3 uM peptide mix; read-out: IGFR IC50
Procedure: For Echo dosing the solvent was 100% DMSO. A master plate was prepared with 40 ul of 10 mM stock solution of the test compound in DMSO in quadrant 1 of a Labcyte 384 well plate. A 1 in 100 dilution was made from quadrant 1 into quadrant 2 by removing 0.4 ul and adding it to 39.6 ul of DMSO. […] Integration of the substrate and product peaks was carried out using Caliper LabChip software and IC50 curves were calculated using Origin™ software.
propertyName: IC50 (nM)

• COc1cc(N2CC3CN(C(C)=O)CC(C2)O3)ccc1Nc1ncc(Cl)c(-c2cnc3c(F)cccn23)n1 [Example 215] = 9
• COc1cc(OC2CN(C(=O)[C@@H](C)O)C2)ccc1Nc1ncc(Cl)c(-c2cnc3ccccn23)n1 [Example 27.6] = 14
• COc1ccc(N2CCNCC2)cc1Nc1ncc(F)c(-c2cnn3ccccc23)n1 [Example 174] = 63
• COc1cc(N2CCNCC2)ccc1Nc1ncc(Cl)c(-c2cnc3ccc(C#N)cn23)n1 [Example 266] = 29
• COc1cc(N2CCN(S(=O)(=O)N(C)C)CC2)ccc1Nc1ncc(Cl)c(-c2cnc3ccccn23)n1 [Example 3.7] = 11
• COc1cc(C(C)C(=O)N2CCOCC2)ccc1Nc1ncc(Cl)c(-c2cnc3ccccn23)n1 (stereo not shown) [Example 3.39] = 31
• COc1cc(N2CCN(C(=O)[C@@H](C)O)CC2)ccc1Nc1ncc(Cl)c(-c2cnc3cc(C)ccn23)n1 [Example 257] = 10
• COc1cc(N2CC3CN(CCO)CC(C2)O3)ccc1Nc1ncc(C)c(-c2cnn3ccccc23)n1 [Example 166] = 17
• COc1cc(C2CCN(C(C)=O)CC2)ccc1Nc1ncc(Cl)c(-c2cnc3c(F)cccn23)n1 [Example 177] = 5
• COc1cc(C2CCN(C(=O)CO)CC2)ccc1Nc1ncc(Cl)c(-c2cnn3ccccc23)n1 [Example 137] = 3
• COc1cc(C2CCN(C(=O)[C@@H](C)O)CC2)ccc1Nc1ncc(Cl)c(-c2cnn3ccccc23)n1 [Example 138] = 3
• COc1cc(C2CCNCC2)ccc1Nc1ncc(C)c(-c2cnc3c(F)cccn23)n1 [Example 197] = 13
• COc1cc(N2CC3CN(C(=O)[C@H](C)O)CC(C2)O3)ccc1Nc1ncc(Cl)c(-c2cnc3c(F)cccn23)n1 [Example 213] = 14
